Reported EC50 by item:
target: T1, LILRB2-His antigen (UniProt Q8N423 22-460, limits assumed); assay: indirect ELISA, coated LILRB2-His
T1 construct: Coated on ELISA plates; also used for phage panning; also called LILRB2 antigen; not shown: His tag
RESULT TYPE: EC50 (nM)

[[record]]
binder = "B2-15 (antibody, V domains shown, also called B-15; B2-15_HC) VH: EVQLVQSGAEVKKSGASVKVSCKSSGYTFTNYGISWVRQAPGQGLEWMGWISGDAGDTKFAQKFQGRVTMTTDTSTTTTYMELRSLRSDDTAVYYCARDGEYIPMFRGFDNYYGLDVWGQGTLVSVSS VL: QSVLTQPPSASATPGQRVTISCSGRNANIGSNPVNWYQQLPGTAPRLVMYSNNQRPSGVPDRFSGSKSGTSASLAISGLQSEDEADYYCEGWDDSLNGYVFGTGTKVTVL"
result_type = "EC50"
observed_value = 46.5

[[record]]
binder = "B2-3 (antibody, V domains shown, also called B2-3_HC; B2-3_LC) VH: QVQLVQSGAEVKKPGASVKVSCRTSGYTFSSYGISWVRQAPGQGLEWMGWISGNTGNTKYTPKLQGRVTMTTDTSTSTAYMELRSLRSDDTAVYYCARDRGIAAGRAFDIWGQGTMVTVSS VL: QPVLTQPPSASGTPGQRVTISCSGSSSNIGTNPVNWYQQVPGTGPKLLIYNNNQWPSGVPDRFSGSKSATSASLAIYGLQSGDEAHYYCSSWDDSLSAWVFGGGTKVTVL"
result_type = "EC50"
observed_value = 0.787

[[record]]
binder = "B2-18 (antibody, V domains shown, also called B2-18_HC; B2-18_LC) VH: QVQLVQSGAEVKKPGASVKVSCKASGYTFTRYGFSWVRQAPGQGLEWMGWISGYNGNTKYAQKFQGRVTMTTDTSTSTAYMELRSLTSNDTAVYYCARDRGSGYLEYWGPGTLVTVSS VL: DVQMTQSPSSLSASVGERVTLTCRASQGIYSSLAWYQQKPGKAPKLLLYGTSQLERGVPSRFSGSGSGTDYTLTISSLQPEDSATYYCQQHYNLPITFGQGTRLEIK"
result_type = "EC50"
observed_value = 0.355

[[record]]
binder = "B2-26 (antibody, V domains shown, also called B2-26_HC; B2-26_LC) VH: QVQLVQSGAEVKKPGASVKVSCKASGYTFTSYGISWVRQAPGQGLEWMGWISAYNGNTNYAQKLQGRVTMTTDTSTSTAYMELRSLRSDDTAVYYCARDRGGWFDPWGQGTLVIVSS VL: QSPSSLSASVGDRVTITCRASQSISNFVNWYQQKPGEVPKLLIYGASSLQSGVPSRFSGSGSGTDFTLTISSLQPEDFATYYCQQGYSVPLTFGGGTTVDIK"
result_type = "EC50"
observed_value = 1.02

[[record]]
binder = "B2-30 (antibody, human IgG1, V domains shown, also called B2-30_HC; B2-30_LC) VH: QVQLVESGGGLVQPGGSLRLSCAASGFTFSSYDMHWVRQATGKGLEWVSAIGTAGDTYYPGSVKGRFTISRENAKNSLYLQMNSLRAGDTAVYYCARAKEYCSGGSCQDAFDIWGQGTMVSVSS VL: QSPSSLSASVGDRVTITCRASQSIRTYLNWYQQKPGKDPELLIYAATSLQSGVPSRFTGSGSGTDFTLTISSLQPEDFATYYCQQSYSAPVFTFGQGTKLEIK"
result_type = "EC50"
observed_value = 1.19

